- Tested system: CaChs2 (Candida albicans, UniProt P30572)
- Test description: CaChs2 inhibition assay
- Assay type: biochemical
- Measurement conditions: purified CaChs2
Value type: Ki (µM)
Number only, in µM; omit the unit.

Reported Ki for NC(=O)OC[C@H](O)[C@@H](O)[C@H](N)C(=O)N[C@H](C(=O)O)[C@H]1O[C@@H](n2cc(C(=O)O)c(=O)[nH]c2=O)[C@H](O)[C@@H]1O : what is it?
3.2

* * *

- Tested system: CaChs2 (Candida albicans, UniProt P30572)
- Sequence (P30572 1-1009): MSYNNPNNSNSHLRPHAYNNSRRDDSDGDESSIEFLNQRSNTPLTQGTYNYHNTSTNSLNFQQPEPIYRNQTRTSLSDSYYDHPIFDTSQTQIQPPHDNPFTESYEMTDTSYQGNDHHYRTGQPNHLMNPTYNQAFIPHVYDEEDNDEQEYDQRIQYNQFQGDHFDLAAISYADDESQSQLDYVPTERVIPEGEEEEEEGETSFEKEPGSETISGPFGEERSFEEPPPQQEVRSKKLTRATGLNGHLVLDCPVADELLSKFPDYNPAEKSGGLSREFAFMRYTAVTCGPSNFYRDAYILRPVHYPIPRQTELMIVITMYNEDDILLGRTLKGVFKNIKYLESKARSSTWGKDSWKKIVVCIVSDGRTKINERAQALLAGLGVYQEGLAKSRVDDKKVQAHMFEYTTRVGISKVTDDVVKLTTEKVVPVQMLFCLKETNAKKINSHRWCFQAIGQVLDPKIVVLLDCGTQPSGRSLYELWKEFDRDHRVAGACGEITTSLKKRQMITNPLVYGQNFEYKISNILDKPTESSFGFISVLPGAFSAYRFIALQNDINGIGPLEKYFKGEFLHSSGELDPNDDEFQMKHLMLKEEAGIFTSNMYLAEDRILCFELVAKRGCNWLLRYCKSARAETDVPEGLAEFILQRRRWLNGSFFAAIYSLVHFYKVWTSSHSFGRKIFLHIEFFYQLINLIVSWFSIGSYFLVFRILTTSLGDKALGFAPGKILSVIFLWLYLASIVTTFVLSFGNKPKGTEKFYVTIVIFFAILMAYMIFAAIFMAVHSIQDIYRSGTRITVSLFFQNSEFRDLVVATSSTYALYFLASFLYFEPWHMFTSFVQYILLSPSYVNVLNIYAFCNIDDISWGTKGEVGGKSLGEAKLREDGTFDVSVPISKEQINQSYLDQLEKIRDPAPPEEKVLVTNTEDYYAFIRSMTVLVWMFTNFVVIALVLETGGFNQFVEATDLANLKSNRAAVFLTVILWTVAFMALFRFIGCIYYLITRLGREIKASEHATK
- Test description: CaChs2 inhibition assay
- Type: biochemical
Value type: Ki

State the recorded Ki for this entry: C[C@@H]([C@H](N)C(=O)N[C@H](C(=O)O)[C@H]1O[C@@H](n2ccc(=O)[nH]c2=O)[C@H](O)[C@@H]1O)[C@H](O)c1ccc(O)cn1 [nikkomycin Z]
1500 nM
